Data credit: patent US20230365675A1

# study system: Mutant CD33-GFP M12 (G88S) on 293FT cells (UniProt P20138)
# Sequence (P20138 18-364 G88S): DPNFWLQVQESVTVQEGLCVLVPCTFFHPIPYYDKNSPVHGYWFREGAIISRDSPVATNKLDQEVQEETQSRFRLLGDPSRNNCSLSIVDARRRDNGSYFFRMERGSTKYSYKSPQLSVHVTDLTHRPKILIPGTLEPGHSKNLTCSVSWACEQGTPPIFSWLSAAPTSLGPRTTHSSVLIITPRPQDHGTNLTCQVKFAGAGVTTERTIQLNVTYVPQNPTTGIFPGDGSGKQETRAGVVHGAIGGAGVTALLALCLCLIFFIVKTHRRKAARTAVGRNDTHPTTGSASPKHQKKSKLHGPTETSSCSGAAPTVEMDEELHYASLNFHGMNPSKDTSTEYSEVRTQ
# assay details: FACS, mutant CD33-GFP on 293FT cells
assay readout: FACS binding data
Lab note: record the figure alone, no unit after it.

In: Please report the recorded FACS binding data for sdCD33_6 (VHH, sdAb from a naive llama phage library; also called 416; sdAb416) VHH: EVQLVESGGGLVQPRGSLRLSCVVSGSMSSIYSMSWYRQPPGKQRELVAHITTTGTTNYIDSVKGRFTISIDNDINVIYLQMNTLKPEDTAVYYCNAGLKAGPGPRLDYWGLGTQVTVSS .
Out: 99.1

In: Please report the recorded FACS binding data for sdCD33_3 (VHH) VHH: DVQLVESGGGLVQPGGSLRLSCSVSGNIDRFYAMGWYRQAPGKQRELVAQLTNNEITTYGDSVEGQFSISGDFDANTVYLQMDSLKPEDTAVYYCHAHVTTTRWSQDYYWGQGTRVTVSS .
Out: 99

In: Please report the recorded FACS binding data for sdCD33_8 (VHH, sdAb from a naive llama phage library; also called 424; sdAb424) VHH: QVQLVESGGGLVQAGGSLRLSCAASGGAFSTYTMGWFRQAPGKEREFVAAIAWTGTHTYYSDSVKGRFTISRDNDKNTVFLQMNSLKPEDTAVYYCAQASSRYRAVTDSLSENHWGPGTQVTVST .
Out: 98.8

In: Please report the recorded FACS binding data for sdCD33_11 (VHH, sdAb from a naive llama phage library; also called 430; sdAb430) VHH: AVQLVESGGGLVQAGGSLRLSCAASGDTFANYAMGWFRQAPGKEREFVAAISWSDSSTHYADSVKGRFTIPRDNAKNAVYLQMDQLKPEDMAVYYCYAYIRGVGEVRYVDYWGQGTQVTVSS .
Out: 98.5

In: Please report the recorded FACS binding data for sdCD33_7 (VHH, sdAb from a naive llama phage library; also called 420; sdAb420) VHH: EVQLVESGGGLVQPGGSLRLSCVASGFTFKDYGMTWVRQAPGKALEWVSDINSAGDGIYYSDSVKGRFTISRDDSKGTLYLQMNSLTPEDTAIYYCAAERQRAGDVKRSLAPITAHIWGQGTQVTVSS .
Out: 98.7

In: Please report the recorded FACS binding data for sdCD33_2 (VHH) VHH: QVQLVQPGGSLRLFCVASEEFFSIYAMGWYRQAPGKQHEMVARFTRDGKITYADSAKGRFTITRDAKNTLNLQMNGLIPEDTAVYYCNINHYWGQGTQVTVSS .
Out: 98.2

In: Please report the recorded FACS binding data for sdCD33_9 (VHH, sdAb from a naive llama phage library; also called 426; sdAb426) VHH: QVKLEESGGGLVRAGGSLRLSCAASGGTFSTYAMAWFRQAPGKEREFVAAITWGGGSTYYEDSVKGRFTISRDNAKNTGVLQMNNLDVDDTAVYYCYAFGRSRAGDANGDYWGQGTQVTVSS .
Out: 99.2

In: Please report the recorded FACS binding data for sdCD33_4 (VHH) VHH: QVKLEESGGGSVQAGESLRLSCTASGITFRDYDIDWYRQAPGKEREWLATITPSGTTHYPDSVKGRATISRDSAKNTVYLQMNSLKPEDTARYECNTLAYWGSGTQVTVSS .
Out: 99

In: Please report the recorded FACS binding data for sdCD33_5 (VHH, sdAb from a naive llama phage library; also called 413; sdAb413) VHH: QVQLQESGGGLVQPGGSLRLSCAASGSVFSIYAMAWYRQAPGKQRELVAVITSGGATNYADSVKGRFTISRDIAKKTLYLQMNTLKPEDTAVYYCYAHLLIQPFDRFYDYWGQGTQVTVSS .
Out: 98.6

In: Please report the recorded FACS binding data for sdCD33_10 (VHH) VHH: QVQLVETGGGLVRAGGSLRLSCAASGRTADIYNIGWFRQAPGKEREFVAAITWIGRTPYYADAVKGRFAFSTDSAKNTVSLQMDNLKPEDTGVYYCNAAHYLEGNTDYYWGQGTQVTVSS .
Out: 98.6
